biological target: F508del in NIH 3T3 cells (Homo sapiens, UniProt P13569, DEL508-508); construct: expressed in transfected cells; experiment: 3T3 assay: membrane potential optical assay for F508del correction; type: cell-based; settings: NIH 3T3 cells, F508del; read-out: 3T3 EC50
Sequence (P13569 with tags, fused parts or gaps DEL508-508): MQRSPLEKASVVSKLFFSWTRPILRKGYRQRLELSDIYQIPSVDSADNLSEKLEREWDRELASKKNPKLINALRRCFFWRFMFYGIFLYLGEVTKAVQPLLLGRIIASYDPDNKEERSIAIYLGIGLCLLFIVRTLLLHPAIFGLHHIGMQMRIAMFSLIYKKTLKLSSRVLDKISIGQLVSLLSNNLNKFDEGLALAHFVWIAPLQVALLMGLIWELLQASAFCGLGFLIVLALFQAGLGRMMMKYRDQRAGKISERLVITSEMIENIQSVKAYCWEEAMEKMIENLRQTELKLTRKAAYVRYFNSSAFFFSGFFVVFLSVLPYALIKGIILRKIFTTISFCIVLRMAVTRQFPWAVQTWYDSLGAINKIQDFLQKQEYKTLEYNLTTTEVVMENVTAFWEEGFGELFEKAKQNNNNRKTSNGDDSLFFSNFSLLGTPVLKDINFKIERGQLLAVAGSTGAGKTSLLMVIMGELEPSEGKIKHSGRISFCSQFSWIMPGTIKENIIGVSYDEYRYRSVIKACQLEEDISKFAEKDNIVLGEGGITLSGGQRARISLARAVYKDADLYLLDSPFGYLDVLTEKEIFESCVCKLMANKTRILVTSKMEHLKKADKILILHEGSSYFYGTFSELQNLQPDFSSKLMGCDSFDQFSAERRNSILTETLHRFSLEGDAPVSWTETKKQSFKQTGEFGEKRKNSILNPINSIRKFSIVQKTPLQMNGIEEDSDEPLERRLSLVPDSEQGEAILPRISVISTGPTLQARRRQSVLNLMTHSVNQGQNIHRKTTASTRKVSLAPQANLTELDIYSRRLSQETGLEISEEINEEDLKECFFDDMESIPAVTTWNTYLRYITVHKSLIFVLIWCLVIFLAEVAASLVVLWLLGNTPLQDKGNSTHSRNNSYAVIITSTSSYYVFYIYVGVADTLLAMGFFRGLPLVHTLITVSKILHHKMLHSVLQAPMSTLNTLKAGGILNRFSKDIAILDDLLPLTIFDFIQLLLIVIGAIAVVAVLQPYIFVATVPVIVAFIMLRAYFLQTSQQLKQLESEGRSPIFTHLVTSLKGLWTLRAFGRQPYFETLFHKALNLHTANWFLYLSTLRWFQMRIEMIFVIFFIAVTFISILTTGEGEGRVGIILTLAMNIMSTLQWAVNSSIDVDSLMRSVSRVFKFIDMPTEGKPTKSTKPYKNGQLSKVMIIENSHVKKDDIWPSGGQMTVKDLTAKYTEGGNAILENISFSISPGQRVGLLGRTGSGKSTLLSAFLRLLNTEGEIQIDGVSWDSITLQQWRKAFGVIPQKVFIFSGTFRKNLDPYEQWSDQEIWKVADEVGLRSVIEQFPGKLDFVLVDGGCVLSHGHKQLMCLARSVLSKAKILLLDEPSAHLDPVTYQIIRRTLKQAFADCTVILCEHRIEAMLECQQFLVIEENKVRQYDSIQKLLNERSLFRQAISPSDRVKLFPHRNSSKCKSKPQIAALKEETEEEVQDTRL
pEC50: −log10 of the molar value.
The entries below come with measured pEC50 values attached.

Worked examples follow.
Please report the recorded pEC50 for Cc1cccc(-c2cc(NS(=O)(=O)c3ccccc3)nn2-c2c(C)cc(C)cc2C)c1 .
> 6.00

Follow-up item: CC(C)=Cc1cn(-c2cccc(Cl)c2)nc1NS(=O)(=O)c1ccccc1
4.52 to 5.52

Follow-up item: Cc1ccc(-c2cc(NS(=O)(=O)c3ccccc3)nc(-c3ccc(C)cc3)c2)cc1
5.52 to 6.00

Follow-up item: CCCc1ccc(NS(=O)(=O)c2ccccc2)nc1-c1ccc(C)cc1
5.52 to 6.00

New cases:
Please report the recorded pEC50 for Nc1cccc(S(=O)(=O)Nc2nc(-c3ccccc3)c(Cc3ccccc3)s2)c1 .
5.52 to 6.00

Follow-up item: Cc1cc(C)c(-n2nc(NS(=O)(=O)c3ccccc3)cc2-c2ccc(Cl)cc2)c(C)c1
> 6.00

Follow-up item: O=S(=O)(Nc1cc(OCc2ccccc2)nc(-c2ccccc2)n1)c1ccccc1
5.52 to 6.00

Follow-up item: Cc1cc(C)c(-n2nc(NS(=O)(=O)c3ccccc3)cc2-c2ccc(Oc3ccccc3)cc2)c(C)c1
> 6.00

Follow-up item: CCOC(=O)c1sc(NS(=O)(=O)c2ccccc2)nc1-c1ccccc1
4.52 to 5.52

Follow-up item: Cc1ccc(C)c(-c2nc(NS(=O)(=O)c3ccccc3)sc2C)c1
> 6.00

Follow-up item: Cc1cc(C)cc(-c2cc(C)cc(NS(=O)(=O)c3ccccc3)n2)c1
4.52 to 5.52

Follow-up item: O=S(=O)(Nc1nc(-c2ccc(Cl)cc2)c(S(=O)(=O)c2ccccc2)s1)c1ccccc1
5.52 to 6.00

Follow-up item: C/C=C/c1ccc(NS(=O)(=O)c2ccccc2)nc1Oc1ccccc1
5.52 to 6.00

Follow-up item: CC1CN(c2cc(NS(=O)(=O)c3ccccc3)nc(Oc3ccccc3)n2)C(C)(C)C1 (centres unmarked)
> 6.00

Follow-up item: COC(=O)Cc1nc(NS(=O)(=O)c2ccccc2)sc1-c1ccccc1
4.52 to 5.52

Follow-up item: Cc1cc(C)c(-n2nc(NS(=O)(=O)c3ccccc3)cc2-c2ccccc2Oc2ccccc2)c(C)c1
> 6.00

Follow-up item: CCc1sc(NS(=O)(=O)c2ccccc2)nc1-c1ccccc1
4.52 to 5.52

Follow-up item: O=S(=O)(Nc1nc(Oc2ccccc2)nc(-c2ccccc2)n1)c1ccccc1
> 6.00

Follow-up item: CC(C)c1sc(NS(=O)(=O)c2ccccc2)nc1-c1ccccc1
4.52 to 5.52

Follow-up item: O=S(=O)(Nc1nc(-c2ccccc2)c(-c2ccccc2)s1)c1ccccc1
5.52 to 6.00

Follow-up item: Cc1cc(C)c(-n2nc(NS(=O)(=O)c3ccccc3)cc2CC(C)C)c(C)c1
5.52 to 6.00

* * *

molecular target: F508del in NIH 3T3 cells (Homo sapiens, UniProt P13569, DEL508-508); construct: expressed in transfected cells; assay: 3T3 assay: membrane potential optical assay for F508del correction; assay type: cell-based; conditions: NIH3T3; NIH 3T3 cells, F508del; read-out: 3T3 Max Activity (%)
Measure name: Emax

Worked examples follow.
Please report the recorded Emax for Cc1cc(C)c(-n2nc(NS(=O)(=O)c3ccccc3)cc2-c2ccccc2Cl)c(C)c1 [Compound 58] .
> 60%

Follow-up item: O=S(=O)(Nc1nn(Cc2ccccc2)cc1-c1ccccc1Cl)c1ccccc1 [Compound 110]
< 30%

Follow-up item: O=S(=O)(Nc1cc(-c2ccccc2)cc(Oc2ccccc2)n1)c1ccccc1 [Compound 142]
> 60%

Follow-up item: Cc1nc(NS(=O)(=O)c2ccccc2)sc1C [Compound 46]
< 30%

Now take the following compound into account.
Please report the recorded Emax for Cc1nc(NS(=O)(=O)c2ccccc2)sc1-c1csc(Nc2ccccn2)n1 [Compound 30] .
30 to 60%

* * *

target: F508del in NIH 3T3 cells (Homo sapiens, UniProt P13569, DEL508-508); construct: expressed in transfected cells; assay: 3T3 assay: membrane potential optical assay for F508del correction; type: cell-based; settings: NIH3T3; NIH 3T3 cells, F508del; read-out: 3T3 Max Activity (%)
The entries below come with measured Emax values attached.

Worked examples follow.
Give the reported Emax for CC(C)Cc1cn(-c2cccc(Cl)c2)nc1NS(=O)(=O)c1ccccc1 (system: F508del in NIH 3T3 cells (Homo sapiens, UniProt P13569, DEL508-508)).
< 30%

Follow-up item: O=S(=O)(Nc1nc(C2CC2)cs1)c1ccccc1
< 30%

Follow-up item: CC(C)=Cc1cn(-c2cccc(Cl)c2)nc1NS(=O)(=O)c1ccccc1
30 to 60%

Follow-up item: CCOC(=O)c1sc(NS(=O)(=O)c2ccccc2)nc1-c1ccccc1
> 60%

New cases:
Give the reported Emax for Cc1cc(C)cc(-c2nc(NS(=O)(=O)c3ccccc3)ccc2C)c1 (system: F508del in NIH 3T3 cells (Homo sapiens, UniProt P13569, DEL508-508)).
> 60%

Follow-up item: C=C(C)c1cc(NS(=O)(=O)c2ccccc2)nn1-c1c(C)cc(C)cc1C
> 60%

Follow-up item: O=S(=O)(Nc1ncc(-c2ccccc2)nc1-c1ccccc1)c1ccccc1
> 60%

Follow-up item: Cc1cccc(C)c1-c1cnc(Oc2ccccc2)c(NS(=O)(=O)c2ccccc2)n1
< 30%

Follow-up item: Cc1ccc(-n2nc(NS(=O)(=O)c3ccccc3)cc2C)cc1
< 30%

Follow-up item: Cc1ccc(-c2nc(NS(=O)(=O)c3ccccc3)ccc2C)c(C)c1
> 60%

Follow-up item: O=S(=O)(Nc1nn(-c2cccc(Cl)c2)cc1-c1ccc(Cl)cc1)c1ccccc1
< 30%

Follow-up item: O=S(=O)(Nc1nn(-c2ccccc2)cc1-c1cccs1)c1ccccc1
< 30%

Follow-up item: Cc1cc(C)c(-n2nc(NS(=O)(=O)c3ccccc3)cc2CC(C)C)c(C)c1
> 60%

Follow-up item: Cc1cccc(-c2cn(-c3cccc(Cl)c3)nc2NS(=O)(=O)c2ccccc2)c1
30 to 60%

Follow-up item: Cc1ccc(C)c(-c2nc(NS(=O)(=O)c3ccccc3)cc(C)c2C)c1
> 60%

* * *

target: F508del in NIH 3T3 cells (Homo sapiens, UniProt P13569, DEL508-508); construct: expressed in transfected cells; test: 3T3 assay: membrane potential optical assay for F508del correction; assay type: cell-based; settings: NIH3T3, read-out: 3T3 Max Activity (%)
Measure name: Emax

Worked examples follow.
Please report the recorded Emax for COc1ccc(Cl)cc1Nc1nc(-c2sc(NS(=O)(=O)c3ccccc3)nc2C)cs1 [Compound 27] .
30 to 60%

Follow-up item: O=S(=O)(Nc1nn(-c2cccc(Cl)c2)cc1-c1cccc(Cl)c1)c1ccccc1 [Compound 70]
30 to 60%

Follow-up item: COc1ccccc1C1(c2cnc(NS(=O)(=O)c3ccccc3)s2)CC1 [Compound 25]
> 60%

New cases:
Please report the recorded Emax for CCCc1sc(NS(=O)(=O)c2ccccc2)nc1-c1ccc(C)cc1C [Compound 6] .
> 60%

Follow-up item: Cc1cc(C)c(-n2nc(NS(=O)(=O)c3ccccc3)cc2-c2ccc(Oc3ccccc3)cc2)c(C)c1 [Compound 49]
30 to 60%

Follow-up item: Cc1ccc(-c2nc(NS(=O)(=O)c3ccccc3)sc2-c2ccc(C)cc2)cc1 [Compound 10]
30 to 60%

* * *

The entries below come with measured EC50 values attached.
target: F508del in NIH 3T3 cells (Homo sapiens, UniProt P13569, DEL508-508); construct: expressed in transfected cells; experiment: 3T3 assay: membrane potential optical assay for F508del correction; format: cell-based; settings: NIH 3T3 cells, F508del; read-out: 3T3 EC50

Please report the recorded EC50 for CC(C)Oc1nc(NS(=O)(=O)c2ccccc2)nc(-c2ccccc2)n1 .
3 to 30 µM

New cases:
Please report the recorded EC50 for O=S(=O)(Nc1nn(-c2cccc(Cl)c2)cc1-c1ccccc1)c1ccccc1 .
1 to 3 µM

Follow-up item: Nc1cccc(S(=O)(=O)Nc2nc(Oc3ccccc3)nc(-c3ccccc3)n2)c1
3 to 30 µM

Follow-up item: Cc1ccc(-c2nc(NS(=O)(=O)c3ccccc3)sc2-c2ccc(C)cc2)cc1
< 1 µM

Follow-up item: Cc1cc(C)c(-n2nc(NS(=O)(=O)c3ccccc3)cc2-c2cccc(Oc3ccccc3)c2)c(C)c1
< 1 µM

Follow-up item: Cc1cc(NS(=O)(=O)c2ccccc2)nc(-c2ccc(C)cc2C)c1
3 to 30 µM

Follow-up item: C/C=C/c1ccc(NS(=O)(=O)c2ccccc2)nc1-c1ccc(C)cc1
1 to 3 µM

Follow-up item: Cc1nc(NS(=O)(=O)c2ccccc2)sc1-c1ccccc1
1 to 3 µM

Follow-up item: Cc1cc(C)c(-n2nc(NS(=O)(=O)c3ccccc3)cc2C2CCCCC2)c(C)c1
< 1 µM

Follow-up item: COc1ccccc1-c1cc(NS(=O)(=O)c2ccccc2)nn1-c1c(C)cc(C)cc1C
1 to 3 µM

Follow-up item: Cc1cc(NS(=O)(=O)c2ccccc2)nc(-c2ccc(C)c(C)c2)c1
3 to 30 µM

Follow-up item: Cc1cc(C)cc(-c2nc(NS(=O)(=O)c3ccccc3)cc(C)c2C)c1
1 to 3 µM

Follow-up item: Cc1cc(C)c(-n2nc(NS(=O)(=O)c3ccccc3)cc2C(C)C)c(C)c1
1 to 3 µM

Follow-up item: Cc1cc(C)c(-n2nc(NS(=O)(=O)c3ccccc3)cc2-c2cccc(Cl)c2)c(C)c1
< 1 µM

Follow-up item: CCOC(=O)C1=C(c2ccccc2)N=C(NS(=O)(=O)c2ccccc2)SC1c1ccccc1 (centres unmarked)
< 1 µM

Follow-up item: COc1ccc(-c2cc(NS(=O)(=O)c3ccccc3)nn2-c2c(C)cc(C)cc2C)cc1
< 1 µM

Follow-up item: Cc1cccc(C)c1-c1cnc(NCc2ccccc2)c(NS(=O)(=O)c2ccccc2)n1
1 to 3 µM
